What shrunken log2 fold change was measured for each of the following?
# System: Escherichia coli TOP10;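 note: peptides expressed intracellularly from a pBAD plasmid library in pooled LB shake-flask culture, induced with 0.3% L-arabinose, DNA abundance read by NGS, three biological replicates, DESeq2 with apeglm shrinkage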
# protocol-description: shrunken log2 fold change of peptide-encoding DNA abundance (4.5 h post-induction vs induction); higher = less antimicrobial activity (less host growth inhibition)
# experimental-parameters: time post-induction: 4.5 h; library: site-saturation at positions 5, 18, 19, 20
Write no unit; give the number alone.

get_value(item= "RRIRARPPRLPRPRPRPNAEPRP" , readout=shrunken log2 fold change) returns 0.679

Short answer for "RRIRKRPPRLPRPRPRPPSMPRP" : shrunken log2 fold change was 0.669

The sequence listed as "RRIRNRPPRLPRPRPRPHVPPRP" shows shrunken log2 fold change equal to -0.528

response.value for "RRIRYRPPRLPRPRPRPLMKPRP" (field: shrunken log2 fold change) = -0.179

The sequence identified as "RRIRSRPPRLPRPRPRPNQGPRP" registered its shrunken log2 fold change at 0.153

// recorded shrunken log2 fold change for "RRIRLRPPRLPRPRPRPTYQPRP" : -0.229

Form: sequence = "RRIRYRPPRLPRPRPRPHIQPRP" ; shrunken log2 fold change = -1.03

Query "RRIRSRPPRLPRPRPRPQMKPRP" yields shrunken log2 fold change of -0.32

Measured shrunken log2 fold change of "RRIRPRPPRLPRPRPRPEVWPRP" : 0.5

Reported shrunken log2 fold change of "RRIRSRPPRLPRPRPRPMQPPRP" : 0.0538

// sample "RRIRLRPPRLPRPRPRPLGQPRP" , its shrunken log2 fold change was 0.0405

Entry under test: "RRIRKRPPRLPRPRPRPVCPPRP" . Its shrunken log2 fold change was 0.0175

shrunken log2 fold change reported for this sequence "RRIRTRPPRLPRPRPRPDQTPRP" : -0.0468

// recorded shrunken log2 fold change for "RRIRTRPPRLPRPRPRPIRPPRP" : 0.122

Field shrunken log2 fold change (entry "RRIRQRPPRLPRPRPRPHFHPRP" ) reads -0.396

Entry under test: "RRIRCRPPRLPRPRPRPFVPPRP" . Its shrunken log2 fold change was -0.139

// shrunken log2 fold change lookup, sequence = "RRIRHRPPRLPRPRPRPFGNPRP" , result: -0.119

Entry "RRIRNRPPRLPRPRPRPLRTPRP" — recorded shrunken log2 fold change = 0.717

Data point: "RRIRKRPPRLPRPRPRPCFCPRP" ; shrunken log2 fold change = 0.0588

Entry under test: "RRIRPRPPRLPRPRPRPPIIPRP" . Its shrunken log2 fold change was -0.231

Reported shrunken log2 fold change ( "RRIRRRPPRLPRPRPRPMDYPRP" ) = 0.0716

Record summary for "RRIRCRPPRLPRPRPRPCCDPRP" : reported shrunken log2 fold change = -0.27

Reported shrunken log2 fold change ( "RRIRKRPPRLPRPRPRPQFGPRP" ) = 0.0962

get_value(item= "RRIRFRPPRLPRPRPRPGKQPRP" , readout=shrunken log2 fold change) returns 0.0463

According to the records, this sequence "RRIRKRPPRLPRPRPRPVLLPRP" displays shrunken log2 fold change of 0.122

Value of shrunken log2 fold change reported for the sequence "RRIRARPPRLPRPRPRPWRAPRP" is 0.338

What the record says about "RRIRSRPPRLPRPRPRPNTMPRP" : shrunken log2 fold change is -0.154

Entry "RRIRHRPPRLPRPRPRPLDSPRP" , shrunken log2 fold change reported as -0.448

Recorded shrunken log2 fold change (sequence "RRIRQRPPRLPRPRPRPCHEPRP" ): -0.0663

get_value(item= "RRIRYRPPRLPRPRPRPMTAPRP" , readout=shrunken log2 fold change) returns -0.0394

Entry "RRIRARPPRLPRPRPRPCLYPRP" — recorded shrunken log2 fold change = 0.137

shrunken log2 fold change reported for this sequence "RRIRHRPPRLPRPRPRPCERPRP" : -0.0535
